biological target: DGKα (Homo sapiens (Human), UniProt P23743); test: Measurement of inhibitory effect against DGKα enzyme (ADP-Glo); assay type: biochemical; settings: DGKα enzyme, ADP-Glo luminescence, OAG/ATP substrate, 20 min room temperature; read-out: IC50
Sequence (P23743 whole entry, species assumed): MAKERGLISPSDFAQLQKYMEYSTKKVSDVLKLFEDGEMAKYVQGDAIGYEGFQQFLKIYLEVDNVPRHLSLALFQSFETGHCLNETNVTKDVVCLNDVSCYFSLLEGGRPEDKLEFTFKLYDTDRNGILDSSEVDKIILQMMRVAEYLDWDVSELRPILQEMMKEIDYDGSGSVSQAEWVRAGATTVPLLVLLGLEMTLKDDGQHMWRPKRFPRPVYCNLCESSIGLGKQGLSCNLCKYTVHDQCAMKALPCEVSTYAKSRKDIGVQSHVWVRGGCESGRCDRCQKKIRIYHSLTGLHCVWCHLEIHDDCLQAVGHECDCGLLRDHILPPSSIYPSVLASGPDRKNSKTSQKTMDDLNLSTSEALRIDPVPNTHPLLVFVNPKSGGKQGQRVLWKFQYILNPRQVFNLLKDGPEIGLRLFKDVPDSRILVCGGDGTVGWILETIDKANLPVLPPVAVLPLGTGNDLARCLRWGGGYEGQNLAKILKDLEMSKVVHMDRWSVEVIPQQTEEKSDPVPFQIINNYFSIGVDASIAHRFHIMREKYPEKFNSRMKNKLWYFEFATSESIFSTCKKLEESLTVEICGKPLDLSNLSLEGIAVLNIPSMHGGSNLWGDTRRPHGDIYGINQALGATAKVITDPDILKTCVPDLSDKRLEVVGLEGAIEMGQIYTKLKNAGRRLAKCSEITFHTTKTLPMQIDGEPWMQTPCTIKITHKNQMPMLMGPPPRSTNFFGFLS
# Lookup of reported IC50 keyed by entry

Here's what some known entries look like.
>  <compound>
Cn1c(=O)c(=O)n(C2CCN(Cc3ccc(OC(F)(F)F)cc3)CC2)c2nc(C#N)c(C3CC3)cc21 [Example 44]

>  <IC50>
300 to 5000 nM

$$$$
>  <compound>
Cn1c(=O)c(=O)n(C2CCN(C(c3cccc(Cl)c3)c3cccc(Cl)c3)CC2)c2ncc(Cl)cc21 [Example 45]

>  <IC50>
300 to 5000 nM

$$$$
>  <compound>
Cc1ccc2c(n1)n(C1CCN(Cc3cccc(Cl)c3)CC1)c(=O)c(=O)n2C [Example 13]

>  <IC50>
< 300 nM

$$$$

Now, please, on to the next compound.
Given the compound Cn1cc(-c2cnc3c(c2)n(C)c(=O)c(=O)n3C2CCN(Cc3ccc(OC(F)(F)F)cc3)CC2)cn1 [Example 36] , what is its reported IC50? < 300 nM

---

molecular target: DGKα (Homo sapiens (Human)); experiment: Measurement of inhibitory effect against DGKα enzyme (ADP-Glo); assay type: biochemical; details: DGKα enzyme, ADP-Glo luminescence, OAG/ATP substrate, 20 min room temperature; read-out: IC50
This section presents compounds with their documented IC50 values.

// worked examples, IC50 included
>  <smilesText>
Cn1c(=O)c(=O)n(C2CCN(Cc3cccc4ccccc34)CC2)c2ncc(Cl)cc21

>  <assayTarget>
DGKα (Homo sapiens (Human))

>  <reported>
< 300 nM

$$$$
>  <smilesText>
Cc1ccc2c(n1)n(C1CCN(Cc3cccc4cnccc34)CC1)c(=O)c(=O)n2C

>  <assayTarget>
DGKα (Homo sapiens (Human))

>  <reported>
300 to 5000 nM

$$$$

If you can, please state the reported IC50 value of Cc1cnc2c(c1)n(C)c(=O)c(=O)n2C1CCN(Cc2ccc(OC(F)(F)F)cc2)CC1 . < 300 nM

Any idea what its IC50 is? The compound is Cc1ccc2c(n1)n(C1CCN(Cc3cccc4ccccc34)CC1)c(=O)c(=O)n2C < 300 nM

---

# pIC50 per record follows
target: UniProt:P23743; assay: Measurement of inhibitory effect against DGKα enzyme (ADP-Glo); format: biochemical; details: DGKα enzyme, ADP-Glo luminescence, OAG/ATP substrate, 20 min room temperature; read-out: IC50
pIC50: −log10 of the molar value.

>  <smilesText>
Cn1c(=O)c(=O)n(C2CCN(Cc3ccc(OC(F)(F)F)cc3)CC2)c2ncc(C3CC3)cc21

>  <pIC50>
< 5.30

$$$$
>  <smilesText>
Cc1ccc2c(n1)n(C1CCN(Cc3ccnc4ccccc34)CC1)c(=O)c(=O)n2C

>  <pIC50>
5.30 to 6.52

$$$$
>  <smilesText>
Cn1c(=O)c(=O)n([C@H]2C[C@H]3CC[C@@H](C2)N3Cc2ccc(OC(F)(F)F)cc2)c2ncc(Cl)cc21

>  <pIC50>
> 6.52

$$$$

Dear colleague, I am looking for the recorded pIC50 of the following compound: Cn1c(=O)c(=O)n(C2CCN(Cc3cccc4ccccc34)CC2)c2nc(C#N)ccc21 5.30 to 6.52

Field request: pIC50 | item: Cc1ccc2c(n1)n(C1CCN(Cc3c(C)n(C)c4ccccc34)CC1)c(=O)c(=O)n2C < 5.30

// lookup pIC50 for CC(C)Oc1ccc2c(n1)n(C1CCN(Cc3ccc(OC(F)(F)F)cc3)CC1)c(=O)c(=O)n2C < 5.30

State the recorded pIC50 for this entry: Cn1c(=O)c(=O)n(C2CCN(Cc3ccc(OC(F)(F)F)cc3)CC2)c2ncc(-c3ccccc3F)cc21 > 6.52

I'd like to know its pIC50. The compound in question is Cc1ccc2c(n1)n(C1CCN(Cc3ccc4ccccc4c3)CC1)c(=O)c(=O)n2C 5.30 to 6.52

---

target: DGKα (Homo sapiens (Human), UniProt P23743); experiment: Measurement of inhibitory effect against DGKα enzyme (ADP-Glo); format: biochemical; conditions: DGKα enzyme, ADP-Glo luminescence, OAG/ATP substrate, 20 min room temperature; read-out: IC50
pIC50: −log10 of the molar value.
property: pIC50

These recorded examples may help you get a feel for the data.
>  <molecule>
Cc1ccc2c(n1)n(C1CCN(Cc3ccccc3Cl)CC1)c(=O)c(=O)n2C [Example 12]

>  <assayTarget>
DGKα (Homo sapiens (Human), UniProt P23743)

>  <property>
pIC50

>  <reported>
5.30 to 6.52

$$$$
>  <molecule>
Cn1c(=O)c(=O)n(C2CCN(Cc3ccc(OC(F)(F)F)cc3)CC2)c2ncccc21 [Example 1]

>  <assayTarget>
DGKα (Homo sapiens (Human), UniProt P23743)

>  <property>
pIC50

>  <reported>
> 6.52

$$$$
>  <molecule>
CNC(=O)c1cnc2c(c1)n(C)c(=O)c(=O)n2C1CCN(Cc2ccc(OC(F)(F)F)cc2)CC1 [Example 65]

>  <assayTarget>
DGKα (Homo sapiens (Human), UniProt P23743)

>  <property>
pIC50

>  <reported>
5.30 to 6.52

$$$$
>  <molecule>
Cn1c(=O)c(=O)n(C2CCN(Cc3cccc4c3CCCC4)CC2)c2ncc(Cl)cc21 [Example 37]

>  <assayTarget>
DGKα (Homo sapiens (Human), UniProt P23743)

>  <property>
pIC50

>  <reported>
> 6.52

$$$$
>  <molecule>
Cn1c(=O)c(=O)n(C2CCN(Cc3cccc(C(F)(F)F)c3)CC2)c2ncc(Cl)cc21 [Example 30]

>  <assayTarget>
DGKα (Homo sapiens (Human), UniProt P23743)

>  <property>
pIC50

>  <reported>
> 6.52

$$$$
>  <molecule>
Cc1ccc2c(n1)n(C1CCN(Cc3ccc(Cl)cc3)CC1)c(=O)c(=O)n2C [Example 14]

>  <assayTarget>
DGKα (Homo sapiens (Human), UniProt P23743)

>  <property>
pIC50

>  <reported>
5.30 to 6.52

$$$$
>  <molecule>
Cn1c(=O)c(=O)n(C2CCN(Cc3ccc(OC(F)(F)F)cc3)CC2)c2nc(C#N)ccc21 [Example 11]

>  <assayTarget>
DGKα (Homo sapiens (Human), UniProt P23743)

>  <property>
pIC50

>  <reported>
5.30 to 6.52

$$$$
>  <molecule>
Cc1ccc2c(n1)n(C1CCN(Cc3ccccc3)CC1)c(=O)c(=O)n2C [Example 23]

>  <assayTarget>
DGKα (Homo sapiens (Human), UniProt P23743)

>  <property>
pIC50

>  <reported>
5.30 to 6.52

$$$$

Requested field: pIC50. Item: Cn1c(=O)c(=O)n(C2CCN(Cc3ccc(OC(F)(F)F)cc3)CC2)c2ncc(C#N)cc21 [Example 47] 5.30 to 6.52

Query: pIC50; subject: COC(=O)c1cnc2c(c1)n(C)c(=O)c(=O)n2C1CCN(Cc2ccc(OC(F)(F)F)cc2)CC1 [Example 60] > 6.52

I have this molecule here, C[C@@H]1CC(n2c(=O)c(=O)n(C)c3cc(Cl)cnc32)[C@@H](C)CN1Cc1ccc(OC(F)(F)F)cc1 (stereo partly shown) [Example 49] , and I need its recorded pIC50. 5.30 to 6.52

Fill in the blank: the reported pIC50 of COc1ncccc1CN1CCC(n2c(=O)c(=O)n(C)c3ccc(C)nc32)CC1 [Example 15] is ____. < 5.30

Requested read-out: pIC50. Entry: CN(C)C(=O)c1cnc2c(c1)n(C)c(=O)c(=O)n2C1CCN(Cc2ccc(OC(F)(F)F)cc2)CC1 [Example 64] < 5.30

Endpoint output: pIC50 of CC(C)n1cc(CN2CCC(n3c(=O)c(=O)n(C)c4cc(Cl)cnc43)CC2)cn1 [Example 52] . Value? < 5.30

Quick one: pIC50 of Cn1c(=O)c(=O)n(C2CCN(Cc3cccc4nccnc34)CC2)c2ncc(Cl)cc21 [Example 33] ? 5.30 to 6.52

Fill in the blank: the reported pIC50 of CN(C)CCNC(=O)c1cnc2c(c1)n(C)c(=O)c(=O)n2C1CCN(Cc2ccc(OC(F)(F)F)cc2)CC1 [Example 63] is ____. < 5.30

Item Cc1cnc2c(c1)n(C)c(=O)c(=O)n2C1CCN(Cc2cccc(Cl)c2)CC1 [Example 67] has what recorded pIC50? > 6.52

Reported pIC50, molecule CC(=O)c1cnc2c(c1)n(C)c(=O)c(=O)n2C1CCN(Cc2ccc(OC(F)(F)F)cc2)CC1 [Example 48] : ____ > 6.52

I am curious: what pIC50 value has been reported for Cc1ccc2c(n1)n(C1CCN(Cc3ccc(F)nc3)CC1)c(=O)c(=O)n2C [Example 17] ? 5.30 to 6.52

Please report the recorded pIC50 for Cc1ccc2c(n1)n(C1CCN(Cc3ccccc3-c3ccccc3)CC1)c(=O)c(=O)n2C [Example 10] . 5.30 to 6.52

Recorded pIC50 for Cc1ccc2c(n1)n(C1CCN(Cc3ccc(OC(F)(F)F)cc3)CC1)c(=O)c(=O)n2C [Example 2] , please? > 6.52

Recorded pIC50 for Cc1nc2c(cc1Br)n(C)c(=O)c(=O)n2C1CCN(Cc2ccc(OC(F)(F)F)cc2)CC1 [Example 51] , please? > 6.52

Dear colleague, I am looking for the recorded pIC50 of the following molecule: Cc1nc2c(cc1Cl)n(C)c(=O)c(=O)n2C1CCN(Cc2ccc(OC(F)(F)F)cc2)CC1 [Example 50] > 6.52

Give its pIC50 value. Item: Cn1c(=O)c(=O)n(C2CCN(Cc3ccc(OC(F)(F)F)cc3)CC2)c2ncc(Cl)cc21 [Example 28] > 6.52

# input molecule: Cc1ccc2c(n1)n(C1CCN(C(C)c3ccc4nccnc4c3)CC1)c(=O)c(=O)n2C (stereo not shown) [Example 24] ; wanted: its pIC50 < 5.30

The measurements presented in this section are drawn from patent US20240067645A1.
